This collection of values is drawn from patent US10300058B2.

Listing of entries alongside the reported AUC(0-t).
assay: Pharmacokinetics in nude mouse; format: in vivo; details: female, BALB/c nude, plasma, iv, 5 mg/kg
ENDPOINT_NAME: AUC(0-t) (ng·h/mL)

>>> recorded_measurement("C=CC(=O)Nc1cccc(Nc2nc(Nc3ccc(C4CCN(S(C)(=O)=O)CC4)cc3OC)ncc2C(F)(F)F)c1 [Compound 27]")
11600
>>> recorded_measurement("C=CC(=O)Nc1cccc(Nc2nc(Nc3ccc(N4CCN(C(C)=O)CC4)cc3OC)ncc2C(F)(F)F)c1 [CO-1686, reference compound]")
4070
>>> recorded_measurement("C=CC(=O)Nc1cccc(Nc2nc(Nc3ccc(C4CCN(C(C)=O)CC4)cc3OC)ncc2C(F)(F)F)c1 [Compound 2]")
6300

----------
assay: Pharmacokinetics in dog; assay type: in vivo, male Beagle dog; details: male, plasma; Beagle dog, iv, 0.5 mg/kg
ENDPOINT_NAME: AUC(0-t) (ng·h/mL)

>>> recorded_measurement("C=CC(=O)Nc1cccc(Nc2nc(Nc3ccc(N4CCC(N5CCOCC5)CC4)cc3OC)ncc2C(F)(F)F)c1")
1580
>>> recorded_measurement("C=CC(=O)Nc1cccc(Nc2nc(Nc3ccc(C4CCN(C(C)=O)CC4)cc3OC)ncc2C(F)(F)F)c1")
693
>>> recorded_measurement("C=CC(=O)Nc1cccc(Nc2nc(Nc3ccc(N4CC5(CN(C(C)=O)C5)C4)cc3OC)ncc2C(F)(F)F)c1")
1270

----------
target: EGFR T790M (Homo sapiens (Human), UniProt P00533, T790M); test: Mobility Shift Assay, in vitro enzyme-inhibiting activity, EGFR T790M; assay type: biochemical; details: Table 4; Km ATP; unit inferred
Sequence (P00533 25-1210 T790M): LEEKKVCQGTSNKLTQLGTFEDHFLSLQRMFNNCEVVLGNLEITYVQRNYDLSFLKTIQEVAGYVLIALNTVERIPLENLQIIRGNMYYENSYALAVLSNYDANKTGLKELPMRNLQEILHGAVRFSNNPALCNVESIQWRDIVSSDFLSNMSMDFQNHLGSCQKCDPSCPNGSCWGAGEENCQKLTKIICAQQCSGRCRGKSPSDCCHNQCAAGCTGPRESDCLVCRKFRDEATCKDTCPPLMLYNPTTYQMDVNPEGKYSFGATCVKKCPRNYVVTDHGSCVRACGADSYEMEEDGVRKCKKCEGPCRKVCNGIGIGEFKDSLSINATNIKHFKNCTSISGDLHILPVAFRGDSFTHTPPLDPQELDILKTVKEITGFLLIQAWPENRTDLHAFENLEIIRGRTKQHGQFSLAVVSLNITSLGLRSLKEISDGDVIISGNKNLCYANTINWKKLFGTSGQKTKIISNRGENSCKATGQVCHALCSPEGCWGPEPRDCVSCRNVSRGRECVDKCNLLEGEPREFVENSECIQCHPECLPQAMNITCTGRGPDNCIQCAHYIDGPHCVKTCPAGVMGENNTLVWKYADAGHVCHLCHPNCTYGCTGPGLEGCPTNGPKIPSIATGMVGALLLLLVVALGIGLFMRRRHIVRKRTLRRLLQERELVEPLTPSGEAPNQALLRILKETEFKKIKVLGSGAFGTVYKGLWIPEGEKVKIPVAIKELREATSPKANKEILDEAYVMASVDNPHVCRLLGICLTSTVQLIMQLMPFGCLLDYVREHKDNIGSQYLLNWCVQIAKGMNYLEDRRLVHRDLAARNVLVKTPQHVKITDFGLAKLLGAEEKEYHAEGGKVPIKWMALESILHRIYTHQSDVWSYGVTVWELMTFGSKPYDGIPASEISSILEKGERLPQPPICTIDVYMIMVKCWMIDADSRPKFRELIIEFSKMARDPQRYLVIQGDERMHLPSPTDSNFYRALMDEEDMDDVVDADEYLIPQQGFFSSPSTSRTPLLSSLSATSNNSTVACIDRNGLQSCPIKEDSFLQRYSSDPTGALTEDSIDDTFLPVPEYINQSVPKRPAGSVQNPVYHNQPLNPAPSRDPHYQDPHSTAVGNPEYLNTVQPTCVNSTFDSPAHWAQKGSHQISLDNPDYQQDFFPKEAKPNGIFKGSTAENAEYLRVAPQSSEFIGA
ENDPOINT_NAME: IC50 (nM)

>>> recorded_measurement("C=CC(=O)Nc1cccc(Nc2nc(Nc3ccc(C4CCN(C5COC5)CC4)cc3OC)ncc2C(F)(F)F)c1")
1.4
>>> recorded_measurement("C=CC(=O)Nc1cccc(Nc2nc(Nc3ccc(C4CCN(CCF)C(=O)C4)cc3OC)ncc2C(F)(F)F)c1 (stereo not drawn)")
3.9
>>> recorded_measurement("C=CC(=O)Nc1cccc(Nc2nc(Nc3ccc(N4CCC(N5CCOCC5)CC4)cc3OC)ncc2C(F)(F)F)c1")
1.2
>>> recorded_measurement("C=CC(=O)Nc1cccc(Nc2nc(Nc3ccc4c(c3OC)CN(C(C)=O)CC4)ncc2C(F)(F)F)c1")
16
>>> recorded_measurement("C=CC(=O)Nc1cccc(Nc2nc(Nc3ccc(C4CCN(S(C)(=O)=O)CC4)cc3OC)ncc2C(F)(F)F)c1")
9.6
>>> recorded_measurement("C=CC(=O)Nc1cccc(Nc2nc(Nc3ccc(OCCCS(C)(=O)=O)cc3OC)ncc2C(F)(F)F)c1")
3.6

----------
target: EGFR T790M (Homo sapiens (Human), UniProt P00533, T790M); assay: Mobility Shift Assay, in vitro enzyme-inhibiting activity, EGFR T790M; type: biochemical; details: Table 2; Km ATP
pIC50: −log10 of the molar value.
ENDPOINT_NAME: pIC50

>>> recorded_measurement("C=CC(=O)Nc1cccc(Nc2nc(Nc3cc4c(cc3OC)CN(C(C)=O)CC4)ncc2C(F)(F)F)c1 [Compound 11]")
7.89

----------
Measured clearance accompanies every entry in the list below.
experiment: Pharmacokinetics in rat; format: in vivo; details: male, plasma; SD rat, iv, 1 mg/kg
ENDPOINT_NAME: clearance (mL/min/kg)

>>> recorded_measurement("C=CC(=O)Nc1cccc(Nc2nc(Nc3ccc(C4CCN(S(C)(=O)=O)CC4)cc3OC)ncc2C(F)(F)F)c1 [Compound 27]")
22.7
>>> recorded_measurement("C=CC(=O)Nc1cccc(Nc2nc(Nc3ccc(C4CCN(C(C)=O)CC4)cc3OC)ncc2C(F)(F)F)c1 [Compound 2]")
26

----------
Measured Selectivity WT/d746-750, listed per entry for reference.
target: EGFR (d746-750) (Homo sapiens (Human), UniProt P00533, DEL746-750); assay: Mobility Shift Assay, in vitro enzyme-inhibiting activity, EGFR (d746-750); type: biochemical; conditions: Table 7; ratio of IC50
Sequence (P00533 other isoform, or with tags, fused parts or gaps del 1-668/del 746-750 limits assumed): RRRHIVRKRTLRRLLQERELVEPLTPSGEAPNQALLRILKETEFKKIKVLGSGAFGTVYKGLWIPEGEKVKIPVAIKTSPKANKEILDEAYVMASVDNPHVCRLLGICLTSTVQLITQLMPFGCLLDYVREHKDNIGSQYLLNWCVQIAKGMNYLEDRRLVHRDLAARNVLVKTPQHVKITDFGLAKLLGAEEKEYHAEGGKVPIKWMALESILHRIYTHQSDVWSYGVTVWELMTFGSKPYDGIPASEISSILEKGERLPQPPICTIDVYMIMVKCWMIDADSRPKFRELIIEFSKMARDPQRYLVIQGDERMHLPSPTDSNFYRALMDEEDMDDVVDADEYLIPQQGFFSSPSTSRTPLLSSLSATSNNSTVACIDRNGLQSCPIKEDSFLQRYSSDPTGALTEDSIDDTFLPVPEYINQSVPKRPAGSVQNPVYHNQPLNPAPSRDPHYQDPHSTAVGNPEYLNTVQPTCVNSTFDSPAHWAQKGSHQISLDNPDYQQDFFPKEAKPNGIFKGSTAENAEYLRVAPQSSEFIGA
ENDPOINT_NAME: Selectivity WT/d746-750

>>> recorded_measurement("C=CC(=O)Nc1cccc(Nc2nc(Nc3ccc(C4CCN(C(=O)CC)CC4)cc3OC)ncc2C(F)(F)F)c1")
7.3
>>> recorded_measurement("C=CC(=O)Nc1cccc(Nc2nc(Nc3ccc(N4C[C@H]5CN(C(C)=O)C[C@H]5C4)cc3OC)ncc2C(F)(F)F)c1")
6.0
>>> recorded_measurement("C=CC(=O)Nc1cccc(Nc2nc(Nc3ccc(N4CC5(CN(C(C)=O)C5)C4)cc3OC)ncc2C(F)(F)F)c1")
7.4
>>> recorded_measurement("C=CC(=O)Nc1cccc(Nc2nc(Nc3ccc(C4CCN(C(C)=O)CC4)cc3OC)ncc2C(F)(F)F)n1")
10.6
>>> recorded_measurement("C=CC(=O)Nc1cccc(Nc2nc(Nc3ccc(C4CCNC(=O)C4)cc3OC)ncc2C(F)(F)F)c1 (centres unmarked)")
6.4

----------
Molecular target: EGFR (d746-750) (Homo sapiens (Human), UniProt P00533, DEL746-750)
Experiment: Mobility Shift Assay, in vitro enzyme-inhibiting activity, EGFR (d746-750)
Assay type: biochemical
Conditions: Table 8; Km ATP
Protocol: 1. Preparation of Reagents 2. Preparation of a Compound Solution (1) To the second well of a 96-well plate, 5 μL 10 mM compound (dissolved in DMSO) was added, and 95 μL 100% DMSO was added to prepare 100 μL 0.5 mM compound. […] 4. Data on percent conversion was read by Caliper. […] (2) Inhibition rate of enzyme activity was calculated from the data on enzyme activity by the following formula: Inhibition rate(%)=(maximal value−the measured value of a test compound)/(maximal value-minimal value)×100, […]
ENDPOINT_NAME: IC50 (nM)

>>> recorded_measurement("C=CC(=O)Nc1cccc(Nc2nc(Nc3ccc(N4CCC(N5CCOCC5)CC4)cc3OC)ncc2C(F)(F)F)c1")
5.5
>>> recorded_measurement("C=CC(=O)Nc1cccc(Nc2nc(Nc3ccc(C4CCN(S(C)(=O)=O)CC4)cc3OC)ncc2C(F)(F)F)c1")
36

----------
assay: Pharmacokinetics in dog; format: in vivo, male Beagle dog; conditions: male, plasma; Beagle dog, po, 1.28 mg/kg
ENDPOINT_NAME: Tmax (h)

>>> recorded_measurement("C=CC(=O)Nc1cccc(Nc2nc(Nc3ccc(N4CCC(N5CCOCC5)CC4)cc3OC)ncc2C(F)(F)F)c1 [Compound 28]")
1

----------
assay: Pharmacokinetics in nude mouse; type: in vivo; details: female, BALB/c nude, plasma, po, 7.6 mg/kg, solid dispersed sample in pH 4.0 buffer
ENDPOINT_NAME: AUC(0-t)

>>> recorded_measurement("C=CC(=O)Nc1cccc(Nc2nc(Nc3ccc(C4CCN(S(C)(=O)=O)CC4)cc3OC)ncc2C(F)(F)F)c1 [Compound 27]")
"9.79 µg·h/mL"

----------
test: Pharmacokinetics in dog; assay type: in vivo, male Beagle dog; conditions: male, plasma; Beagle dog, po, 1.28 mg/kg
ENDPOINT_NAME: AUC(0-t)

>>> recorded_measurement("C=CC(=O)Nc1cccc(Nc2nc(Nc3ccc(N4CCC(N5CCOCC5)CC4)cc3OC)ncc2C(F)(F)F)c1")
"1820 ng·h/mL"

----------
biological target: EGFR L858R (Homo sapiens (Human), UniProt P00533, L858R); test: Mobility Shift Assay, in vitro enzyme-inhibiting activity, EGFR L858R; assay type: biochemical; conditions: Table 7; Km ATP
Sequence (P00533 25-1210 L858R): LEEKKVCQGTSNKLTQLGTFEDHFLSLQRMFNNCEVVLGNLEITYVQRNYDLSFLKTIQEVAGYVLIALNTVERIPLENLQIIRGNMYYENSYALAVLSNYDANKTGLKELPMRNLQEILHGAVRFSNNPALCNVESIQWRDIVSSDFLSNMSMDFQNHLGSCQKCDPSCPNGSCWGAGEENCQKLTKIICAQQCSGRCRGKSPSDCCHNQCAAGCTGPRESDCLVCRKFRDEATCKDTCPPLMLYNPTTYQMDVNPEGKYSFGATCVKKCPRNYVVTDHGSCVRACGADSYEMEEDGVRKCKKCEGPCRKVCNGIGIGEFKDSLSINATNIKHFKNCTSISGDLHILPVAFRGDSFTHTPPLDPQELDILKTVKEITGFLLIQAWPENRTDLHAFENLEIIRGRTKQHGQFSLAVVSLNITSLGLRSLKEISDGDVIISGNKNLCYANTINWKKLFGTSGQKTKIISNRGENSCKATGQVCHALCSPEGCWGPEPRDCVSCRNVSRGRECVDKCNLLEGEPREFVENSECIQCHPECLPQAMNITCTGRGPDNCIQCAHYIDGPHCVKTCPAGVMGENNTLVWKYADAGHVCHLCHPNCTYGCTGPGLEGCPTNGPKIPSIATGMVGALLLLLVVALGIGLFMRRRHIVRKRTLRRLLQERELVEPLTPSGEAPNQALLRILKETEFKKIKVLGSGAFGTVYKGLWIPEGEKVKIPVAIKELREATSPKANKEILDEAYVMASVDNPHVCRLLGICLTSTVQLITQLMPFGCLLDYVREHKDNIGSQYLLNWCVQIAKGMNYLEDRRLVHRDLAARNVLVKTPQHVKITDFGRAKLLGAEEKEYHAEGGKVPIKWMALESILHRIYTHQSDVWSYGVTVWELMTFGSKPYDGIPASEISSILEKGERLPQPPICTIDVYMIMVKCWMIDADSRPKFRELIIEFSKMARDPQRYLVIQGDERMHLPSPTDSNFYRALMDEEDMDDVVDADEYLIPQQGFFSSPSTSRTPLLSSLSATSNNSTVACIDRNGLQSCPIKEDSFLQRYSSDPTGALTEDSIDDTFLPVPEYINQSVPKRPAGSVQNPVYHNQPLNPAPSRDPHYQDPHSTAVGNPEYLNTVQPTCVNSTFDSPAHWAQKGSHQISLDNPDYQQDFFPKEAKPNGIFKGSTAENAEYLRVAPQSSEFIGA
pIC50: −log10 of the molar value.
pIC50 for assorted compounds
ENDPOINT_NAME: pIC50

>>> recorded_measurement("C=CC(=O)Nc1cccc(Nc2nc(Nc3ccc(N4CC5(CN(C(C)=O)C5)C4)cc3OC)ncc2C(F)(F)F)c1")
7.41
>>> recorded_measurement("C=CC(=O)Nc1cccc(Nc2nc(Nc3ccc(C4CCNC(=O)C4)cc3OC)ncc2C(F)(F)F)c1 (centres unmarked)")
7.55
>>> recorded_measurement("C=CC(=O)Nc1cccc(Nc2nc(Nc3ccc(C4CCN(C(C)=O)CC4)cc3OC)ncc2C(F)(F)F)n1")
7.09
>>> recorded_measurement("C=CC(=O)Nc1cccc(Nc2nc(Nc3ccc(N4C[C@H]5CN(C(C)=O)C[C@H]5C4)cc3OC)ncc2C(F)(F)F)c1")
6.92
>>> recorded_measurement("C=CC(=O)Nc1cccc(Nc2nc(Nc3ccc(C4CCN(C(=O)CC)CC4)cc3OC)ncc2C(F)(F)F)c1")
6.96

----------
molecular target: wild-type EGFR (WT EGFR) (Homo sapiens (Human), UniProt P00533); assay: Mobility Shift Assay, in vitro enzyme-inhibiting activity, wild-type EGFR; type: biochemical; settings: Table 4; Km ATP; unit inferred
Sequence (P00533 25-1210): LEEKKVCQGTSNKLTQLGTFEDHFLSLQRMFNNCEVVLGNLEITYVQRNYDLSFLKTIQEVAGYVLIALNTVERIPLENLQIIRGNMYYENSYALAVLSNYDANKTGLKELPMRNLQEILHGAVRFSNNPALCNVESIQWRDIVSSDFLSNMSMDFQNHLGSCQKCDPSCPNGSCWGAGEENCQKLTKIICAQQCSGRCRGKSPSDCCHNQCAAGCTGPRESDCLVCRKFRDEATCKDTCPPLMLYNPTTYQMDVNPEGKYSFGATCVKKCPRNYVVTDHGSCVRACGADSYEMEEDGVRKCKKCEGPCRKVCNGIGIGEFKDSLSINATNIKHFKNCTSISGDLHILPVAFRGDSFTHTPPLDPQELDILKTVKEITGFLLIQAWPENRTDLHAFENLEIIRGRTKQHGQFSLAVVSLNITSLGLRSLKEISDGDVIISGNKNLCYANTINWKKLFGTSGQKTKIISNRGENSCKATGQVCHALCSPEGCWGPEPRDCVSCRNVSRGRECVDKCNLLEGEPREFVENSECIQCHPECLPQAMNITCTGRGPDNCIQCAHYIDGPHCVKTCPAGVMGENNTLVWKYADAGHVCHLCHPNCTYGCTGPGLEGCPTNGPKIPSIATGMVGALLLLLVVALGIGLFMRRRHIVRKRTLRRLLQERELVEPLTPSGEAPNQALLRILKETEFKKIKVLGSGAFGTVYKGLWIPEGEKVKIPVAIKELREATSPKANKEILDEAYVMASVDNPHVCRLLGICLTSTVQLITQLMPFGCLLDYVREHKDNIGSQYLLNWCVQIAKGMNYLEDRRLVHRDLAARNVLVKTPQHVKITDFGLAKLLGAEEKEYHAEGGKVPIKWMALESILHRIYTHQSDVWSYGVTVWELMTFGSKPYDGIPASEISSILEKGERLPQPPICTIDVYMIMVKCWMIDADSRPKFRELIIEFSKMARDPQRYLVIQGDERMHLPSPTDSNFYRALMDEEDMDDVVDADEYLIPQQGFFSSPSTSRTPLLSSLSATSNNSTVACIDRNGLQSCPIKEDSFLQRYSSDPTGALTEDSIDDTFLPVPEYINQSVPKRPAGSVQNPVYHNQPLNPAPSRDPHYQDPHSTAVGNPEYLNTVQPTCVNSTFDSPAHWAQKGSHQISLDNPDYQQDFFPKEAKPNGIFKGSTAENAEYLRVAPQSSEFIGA
molecules and their reported IC50
ENDPOINT_NAME: IC50 (nM)

>>> recorded_measurement("C=CC(=O)Nc1cccc(Nc2nc(Nc3ccc(C4CCN(C)CC4)cc3OC)ncc2C(F)(F)F)c1")
11
>>> recorded_measurement("C=CC(=O)Nc1cccc(Nc2nc(Nc3ccc(N4CCC(N5CCOCC5)CC4)cc3OC)ncc2C(F)(F)F)c1")
73
>>> recorded_measurement("C=CC(=O)Nc1cccc(Nc2nc(Nc3ccc(N4CC5CCC(C4)N5C(C)=O)cc3OC)ncc2C(F)(F)F)c1")
332
>>> recorded_measurement("C=CC(=O)Nc1cccc(Nc2nc(Nc3ccc(OCCCS(C)(=O)=O)cc3OC)ncc2C(F)(F)F)c1")
159
>>> recorded_measurement("C=CC(=O)Nc1cccc(Nc2nc(Nc3ccc(C4CCN(CCF)C(=O)C4)cc3OC)ncc2C(F)(F)F)c1 (stereo not shown)")
294
>>> recorded_measurement("C=CC(=O)Nc1cccc(Nc2nc(Nc3ccc(C4CCN(C(=O)CCF)CC4)cc3OC)ncc2C(F)(F)F)c1")
683
>>> recorded_measurement("C=CC(=O)Nc1cccc(Nc2nc(Nc3ccc4c(c3OC)CN(C(C)=O)CC4)ncc2C(F)(F)F)c1")
1370
>>> recorded_measurement("C=CC(=O)Nc1cccc(Nc2nc(Nc3ccc(C4CCN(C5COC5)CC4)cc3OC)ncc2C(F)(F)F)c1")
82
>>> recorded_measurement("C=CC(=O)Nc1cccc(Nc2nc(Nc3ccc(C4CCN(S(C)(=O)=O)CC4)cc3OC)ncc2C(F)(F)F)c1")
871
>>> recorded_measurement("C=CC(=O)Nc1cccc(Nc2nc(Nc3cccc4c3CCN(C(C)=O)C4)ncc2C(F)(F)F)c1")
1280
